Overview of recorded pIC50 for various compounds
Tested on: A431 (ATCC: CRL-1555)
Measurement Description: Test of cancer cell growth inhibition (SRB), A431
Condition Set: read-out: IC50 A431; EGFR overexpressed A431, 72 hours, SRB
pIC50 is a log-scale quantity: -log10 of the concentration expressed in molar.

These solved cases illustrate the format of a correct answer.
For the record C=CC(=O)N1CC(C(=O)Nc2ccc3ncnc(Nc4ccc(OCc5ccccn5)c(Cl)c4)c3c2)C1 , what value of pIC50 is listed for A431 (ATCC: CRL-1555)? 5.85

For the record C=CC(=O)N1CCC1C(=O)Nc1ccc2ncnc(Nc3ccc(OCc4ccccn4)c(Cl)c3)c2c1 (stereo not shown) , what value of pIC50 is listed for A431 (ATCC: CRL-1555)? 6.66

For the record CSCC(=O)NCCC(=O)Nc1ccc2ncnc(Nc3ccc(OCc4cccc(F)c4)c(Cl)c3)c2c1 , what value of pIC50 is listed for A431 (ATCC: CRL-1555)? 6.47

For the record CC#CC(=O)N1CCC[C@H]1C(=O)Nc1cc2c(Nc3ccc(OCc4ccccn4)c(Cl)c3)ncnc2cc1OC , what value of pIC50 is listed for A431 (ATCC: CRL-1555)? 7.49

For the record CC(C)=CC(=O)NCCC(=O)Nc1ccc2ncnc(Nc3ccc(OCc4cccc(F)c4)c(Cl)c3)c2c1 , what value of pIC50 is listed for A431 (ATCC: CRL-1555)? 6.51

Others:
For the record C=CC(=O)N1CCCC(C(=O)Nc2ccc3ncnc(Nc4ccc(OCc5ccccn5)c(Cl)c4)c3c2)C1 (stereo not shown) , what value of pIC50 is listed for A431 (ATCC: CRL-1555)? 6.54

For the record Cc1oncc1C(=O)NCCC(=O)Nc1ccc2ncnc(Nc3ccc(OCc4cccc(F)c4)c(Cl)c3)c2c1 , what value of pIC50 is listed for A431 (ATCC: CRL-1555)? 6.08

For the record CN(C)CC=CC(=O)NCCC(=O)Nc1ccc2ncnc(Nc3ccc(OCc4cccc(F)c4)c(Cl)c3)c2c1 , what value of pIC50 is listed for A431 (ATCC: CRL-1555)? 6.21

For the record C=CC(=O)N1CCC[C@H]1C(=O)Nc1cc2c(Nc3ccc(OCc4ccccn4)c(Cl)c3)ncnc2cc1OC , what value of pIC50 is listed for A431 (ATCC: CRL-1555)? 7.57

For the record C=CC(=O)N1CCC[C@H]1C(=O)Nc1ccc2ncnc(Nc3ccc(OCc4ccccn4)c(Cl)c3)c2c1 , what value of pIC50 is listed for A431 (ATCC: CRL-1555)? 7.49

For the record C=CC(=O)N1CCC(C(=O)Nc2ccc3ncnc(Nc4ccc(OCc5ccccn5)c(Cl)c4)c3c2)C1 (stereo not shown) , what value of pIC50 is listed for A431 (ATCC: CRL-1555)? 6.46

For the record CSCC[C@H](NC(=O)CS(C)(=O)=O)C(=O)Nc1ccc2ncnc(Nc3ccc(OCc4cccc(F)c4)c(Cl)c3)c2c1 , what value of pIC50 is listed for A431 (ATCC: CRL-1555)? 6.51

For the record O=C(CCc1ccccc1)NCCC(=O)Nc1ccc2ncnc(Nc3ccc(OCc4cccc(F)c4)c(Cl)c3)c2c1 , what value of pIC50 is listed for A431 (ATCC: CRL-1555)? 6.50

For the record C=CC(=O)N1CCCCC1C(=O)Nc1ccc2ncnc(Nc3ccc(OCc4ccccn4)c(Cl)c3)c2c1 (stereo not shown) , what value of pIC50 is listed for A431 (ATCC: CRL-1555)? 6.98

For the record COCC(=O)N[C@@H](CCSC)C(=O)Nc1ccc2ncnc(Nc3ccc(OCc4cccc(F)c4)c(Cl)c3)c2c1 , what value of pIC50 is listed for A431 (ATCC: CRL-1555)? 6.13

For the record C=CC(=O)N[C@@H](CCSC)C(=O)Nc1ccc2ncnc(Nc3ccc(OCc4cccc(F)c4)c(Cl)c3)c2c1 , what value of pIC50 is listed for A431 (ATCC: CRL-1555)? 7.22

For the record O=C(C=CCN1CCOCC1)NCCC(=O)Nc1ccc2ncnc(Nc3ccc(OCc4cccc(F)c4)c(Cl)c3)c2c1 , what value of pIC50 is listed for A431 (ATCC: CRL-1555)? 6.20

For the record CC=CC=CC(=O)NCCC(=O)Nc1ccc2ncnc(Nc3ccc(OCc4cccc(F)c4)c(Cl)c3)c2c1 , what value of pIC50 is listed for A431 (ATCC: CRL-1555)? 6.63

---

Tested on: A431 (ATCC: CRL-1555)
Measurement Description: Test of cancer cell growth inhibition (SRB), A431
Condition Set: Homo sapiens, A-431, 72 h, read-out: IC50 A431
Overview of recorded pIC50 for various compounds
pIC50 is a log-scale quantity: -log10 of the concentration expressed in molar.

These solved cases illustrate the format of a correct answer.
// returns reported pIC50 for input Cc1ccc(Oc2ccc(Nc3ncnc4ccc(NC(=O)CCNC(=O)CS(C)(=O)=O)cc34)cc2C)cn1 6.07

// returns reported pIC50 for input C=CC(=O)N[C@@H](C)C(=O)Nc1cc2c(Nc3ccc(OCc4cccc(F)c4)c(Cl)c3)ncnc2cc1OCCOC 7.66

Others:
// returns reported pIC50 for input O=C(CCl)NCCCC(=O)Nc1ccc2ncnc(Nc3ccc(OCc4cccc(F)c4)c(Cl)c3)c2c1 6.46

// returns reported pIC50 for input C=CC(=O)NCCC(=O)Nc1cc2c(Nc3ccc(OCc4ccccn4)c(Cl)c3)ncnc2cc1F 7.44

// returns reported pIC50 for input COCC(=O)Nc1ccsc1C(=O)Nc1ccc2ncnc(Nc3ccc(OCc4cccc(F)c4)c(Cl)c3)c2c1 6.08

// returns reported pIC50 for input C=CC(=O)N1CCC[C@H]1C(=O)Nc1cc2c(Nc3ccc(OCc4ccccn4)c(Cl)c3)ncnc2cc1OCC 6.70

// returns reported pIC50 for input C=CC(=O)N[C@@H](CC)C(=O)Nc1cc2c(Nc3ccc(OCc4ccccn4)c(Cl)c3)ncnc2cc1OC 7.77

---

System: A431 (ATCC: CRL-1555)
Measurement Description: Test of cancer cell growth inhibition (SRB), A431
Condition Set: Homo sapiens, A-431, 72 h, read-out: IC50 A431
pIC50: −log10 of the molar value.
Each entry gets class 0 if its pIC50 stays under 7, and class 1 if its pIC50 is 7 or above.

Here are 2 molecules together with their reported answers.
Does pIC50 meet or surpass 7 for O=C(CCNC(=O)c1cn[nH]c1)Nc1ccc2ncnc(Nc3ccc(OCc4cccc(F)c4)c(Cl)c3)c2c1 ? class 0

Does pIC50 meet or surpass 7 for C=CC(=O)NCCC(=O)Nc1ccc2ncnc(Nc3ccc(F)c(Cl)c3)c2c1 ? class 0

Consider the record given below.
Does pIC50 meet or surpass 7 for C=CC(=O)N[C@@H](C)C(=O)Nc1cc2c(Nc3ccc(OCc4ccccn4)c(Cl)c3)ncnc2cc1OCCCN1CCOCC1 ? class 1

---

System: A431 (ATCC: CRL-1555)
Measurement Description: Test of cancer cell growth inhibition (SRB), A431
Condition Set: Homo sapiens, A-431, 72 h, read-out: IC50 A431
Measured Metric: IC50
Please state the value followed by its unit.

These solved cases illustrate the format of a correct answer.
// returns reported IC50 for input CN(C)CCOCC(=O)NCCC(=O)Nc1ccc2ncnc(Nc3ccc(OCc4cccc(F)c4)c(Cl)c3)c2c1 617 nM

// returns reported IC50 for input CS(=O)(=O)CC(=O)NCCC(=O)Nc1ccc2ncnc(Nc3ccc(OCc4cccc(F)c4)c(Cl)c3)c2c1 455 nM

// returns reported IC50 for input C[S+]([O-])CC(=O)NCCCC(=O)Nc1ccc2ncnc(Nc3ccc(OCc4cccc(F)c4)c(Cl)c3)c2c1 (stereo not shown) 102 nM

// returns reported IC50 for input C=CC(=O)N1CCC[C@H]1C(=O)Nc1cc2c(Nc3ccc(OCc4cccc(C)n4)c(Cl)c3)ncnc2cc1OC 93 nM

// returns reported IC50 for input C=CC(=O)N1CCCC1CC(=O)Nc1cc2c(Nc3ccc(OCc4ccccn4)c(Cl)c3)ncnc2cc1OC (stereo not shown) 79 nM

Others:
// returns reported IC50 for input C=CC(=O)N1CSC[C@H]1C(=O)Nc1cc2c(Nc3ccc(OCc4ccccn4)c(Cl)c3)ncnc2cc1OC 438 nM

// returns reported IC50 for input C=CC(=O)NCC(C)C(=O)Nc1ccc2ncnc(Nc3ccc(OCc4cccc(F)c4)c(Cl)c3)c2c1 (stereo not shown) 43 nM

---

System: A431 (ATCC: CRL-1555)
Measurement Description: Test of cancer cell growth inhibition (SRB), A431
Condition Set: Homo sapiens, A-431, 72 h, read-out: IC50 A431
Measured Metric: IC50 (nM)
# value in nM; strip the unit string

These solved cases illustrate the format of a correct answer.
// returns reported IC50 for input O=C(CCNC(=O)C(F)(F)F)Nc1ccc2ncnc(Nc3ccc(OCc4cccc(F)c4)c(Cl)c3)c2c1 161

// returns reported IC50 for input C=CC(=O)N1CCC[C@H]1C(=O)Nc1cc2c(Nc3ccc(OCc4cccnc4)c(Cl)c3)ncnc2cc1OC 85

// returns reported IC50 for input O=C(CCNC(=O)C1=CCCC1)Nc1ccc2ncnc(Nc3ccc(OCc4cccc(F)c4)c(Cl)c3)c2c1 138

// returns reported IC50 for input C=CC(=O)N1C[C@H](S(=O)(=O)CC)C[C@H]1C(=O)Nc1ccc2ncnc(Nc3ccc(OCc4ccccn4)c(Cl)c3)c2c1 6930

// returns reported IC50 for input C=CC(=O)N1CCC[C@H]1C(=O)Nc1cc2c(Nc3ccc(OCc4cccnc4)c(Cl)c3)ncnc2cc1OCCCN1CCOCC1 44

Others:
// returns reported IC50 for input C=CC(=O)N1CCC1C(=O)Nc1cc2c(Nc3ccc(OCc4ccccn4)c(Cl)c3)ncnc2cc1F (stereo not shown) 119

// returns reported IC50 for input COCC(=O)NCC(=O)Nc1ccc2ncnc(Nc3ccc(OCc4cccc(F)c4)c(Cl)c3)c2c1 206
